Data provenance: ChEMBL document CHEMBL4145638

# assay_notes: in vitro
# condition_notes: human, plasma
Could you please report measured remaining at 0 min, 100 µM for the items listed next?
Please report the result as a number followed by the unit.

May I ask what remaining at 0 min, 100 µM has been recorded for CCC(CC)O[C@@H]1C=C(C(=O)O)C[C@H](NCc2ccc(N(CC)CC)cc2)[C@H]1NC(C)=O ? 100%

May I ask what remaining at 0 min, 100 µM has been recorded for CC(C)[N+](C)(CCOC(=O)C1c2ccccc2Oc2ccccc21)C(C)C [PROPANTHELINE BROMIDE] ? 100%

====

# study_system: Neuraminidase (Influenza A virus (A/Memphis/1/1971(H3N2)), UniProt P03471)
# Sequence (P03471 whole entry): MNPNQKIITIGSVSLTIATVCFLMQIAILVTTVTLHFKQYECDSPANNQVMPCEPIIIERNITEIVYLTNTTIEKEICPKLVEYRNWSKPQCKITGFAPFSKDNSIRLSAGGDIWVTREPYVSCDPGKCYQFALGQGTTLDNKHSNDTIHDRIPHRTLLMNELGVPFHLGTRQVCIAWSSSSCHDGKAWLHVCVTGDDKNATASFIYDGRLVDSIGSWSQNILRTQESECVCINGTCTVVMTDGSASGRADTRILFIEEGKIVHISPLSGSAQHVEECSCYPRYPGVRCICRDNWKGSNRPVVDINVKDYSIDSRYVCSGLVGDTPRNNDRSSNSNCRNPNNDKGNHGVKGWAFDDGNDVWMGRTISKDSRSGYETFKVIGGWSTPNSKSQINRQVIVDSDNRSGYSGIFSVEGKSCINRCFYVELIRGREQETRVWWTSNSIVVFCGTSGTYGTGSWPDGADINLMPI
# assay_notes: Inhibition of Influenza A virus (A/Paris/908/97 (H3N2)) neuraminidase activity by fluorometric assay
measure_name: Ki (µM)
Value expressed in µM; do not type the unit.

May I ask what Ki has been recorded for CC(=O)N[C@H]1[C@H]([C@H](O)[C@H](O)CO)OC(C(=O)O)=C(C/C=C/c2ccc(C)cc2)[C@@H]1O ? 219

====

# study_system: Neuraminidase (Influenza A virus)
# Design: species or system Influenza A virus (A/California/04/2009(H1N1))
measure_name: IC50 (nM)
Value expressed in nM; do not type the unit.

May I ask what IC50 has been recorded for CCC(CC)O[C@@H]1C=C(C(=O)O)C[C@H](NCc2ccc(N(CC)c3ccccc3)cc2)[C@H]1NC(C)=O ? 698

May I ask what IC50 has been recorded for CCC(CC)O[C@@H]1C=C(C(=O)O)C[C@H](NCc2ccc(N(C)c3ccccc3)cc2)[C@H]1NC(C)=O ? 29.8

May I ask what IC50 has been recorded for CCC(CC)O[C@@H]1C=C(C(=O)O)C[C@H](NCc2ccc(-c3cccs3)cc2)[C@H]1NC(C)=O ? 21.3

====

# study_system: Neuraminidase (Influenza A virus, UniProt B4URF0)
# Sequence (B4URF0 whole entry): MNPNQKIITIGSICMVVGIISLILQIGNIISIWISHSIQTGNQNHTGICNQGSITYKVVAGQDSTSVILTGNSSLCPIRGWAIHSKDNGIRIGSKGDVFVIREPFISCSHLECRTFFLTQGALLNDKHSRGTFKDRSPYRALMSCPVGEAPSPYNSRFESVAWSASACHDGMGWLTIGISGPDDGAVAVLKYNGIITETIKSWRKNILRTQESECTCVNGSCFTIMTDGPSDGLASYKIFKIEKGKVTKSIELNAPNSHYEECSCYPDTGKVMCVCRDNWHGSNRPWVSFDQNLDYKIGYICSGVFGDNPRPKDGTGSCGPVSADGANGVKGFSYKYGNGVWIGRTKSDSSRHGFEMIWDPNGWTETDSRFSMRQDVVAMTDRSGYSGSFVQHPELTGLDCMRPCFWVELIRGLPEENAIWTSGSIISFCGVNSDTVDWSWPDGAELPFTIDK
# Set-up: species or system A/Babol/36/2005(H3N2)
measure_name: pIC50
Please express pIC50 as -log10 of the molar concentration.

May I ask what pIC50 has been recorded for CCC(CC)O[C@@H]1C=C(C(=O)O)C[C@H](NCc2ccc(N(C)c3ccccc3)cc2)[C@H]1NC(C)=O ? 8.25

May I ask what pIC50 has been recorded for CCC(CC)O[C@@H]1C=C(C(=O)O)C[C@H](NCc2ccc(Nc3ccccc3)cc2)[C@H]1NC(C)=O ? 7.51

May I ask what pIC50 has been recorded for CCC(CC)O[C@@H]1C=C(C(=O)O)C[C@H](NCc2ccc(N3CCCC3)cc2)[C@H]1NC(C)=O ? 8.74

May I ask what pIC50 has been recorded for CCC(CC)O[C@@H]1C=C(C(=O)O)C[C@H](NCc2ccc(N(CC)CC)cc2)[C@H]1NC(C)=O ? 8.98

====

# study_system: Neuraminidase (Influenza A virus)
# assay_notes: Inhibition of Influenza A virus (A/Paris/2590/2009(H1N1)) neuraminidase activity by fluorometric assay
measure_name: Ki (nM)
Value expressed in nM; do not type the unit.

May I ask what Ki has been recorded for CC(=O)N[C@H]1[C@H]([C@H](O)[C@H](O)CO)OC(C(=O)O)=C(C/C=C/c2ccc(C)cc2)[C@@H]1O ? 1700

====

Could you please report measured pIC50 for the items listed next?
# study_system: Neuraminidase (Influenza A virus)
# Design: species or system A/Anhui/1/2013(H7N9)
Please express pIC50 as -log10 of the molar concentration.

May I ask what pIC50 has been recorded for CCC(CC)O[C@@H]1C=C(C(=O)O)C[C@H](NCc2ccc(-n3cccc3)cc2)[C@H]1NC(C)=O ? 5.74

May I ask what pIC50 has been recorded for CCC(CC)O[C@@H]1C=C(C(=O)O)C[C@H](NCc2ccc(N(CC)CC)cc2)[C@H]1NC(C)=O ? 8.75

May I ask what pIC50 has been recorded for CCC(CC)O[C@@H]1C=C(C(=O)O)C[C@H](NCc2ccc(-n3cccn3)cc2)[C@H]1NC(C)=O ? 5.04

May I ask what pIC50 has been recorded for CCC(CC)O[C@@H]1C=C(C(=O)O)C[C@H](NCc2ccc(N(CC)c3ccccc3)cc2)[C@H]1NC(C)=O ? 5.59

May I ask what pIC50 has been recorded for CCC(CC)O[C@@H]1C=C(C(=O)O)C[C@H](NCc2ccc(N(C)c3ccccc3)cc2)[C@H]1NC(C)=O ? 7.94

May I ask what pIC50 has been recorded for CCC(CC)O[C@@H]1C=C(C(=O)O)C[C@H](NCc2ccc(N3CCSCC3)cc2)[C@H]1NC(C)=O ? 6.81

May I ask what pIC50 has been recorded for CCC(CC)O[C@@H]1C=C(C(=O)O)C[C@H](NCc2ccc(N3CCCC3)cc2)[C@H]1NC(C)=O ? 8.19

May I ask what pIC50 has been recorded for CCC(CC)O[C@@H]1C=C(C(=O)O)C[C@H](NCc2ccc(N3CCCCC3)cc2)[C@H]1NC(C)=O ? 7.39

May I ask what pIC50 has been recorded for CCC(CC)O[C@@H]1C=C(C(=O)O)C[C@H](NCc2ccc(N(C)C)cc2)[C@H]1NC(C)=O ? 8.08

May I ask what pIC50 has been recorded for CCC(CC)O[C@@H]1C=C(C(=O)O)C[C@H](NCc2ccc(Nc3ccccc3)cc2)[C@H]1NC(C)=O ? 7.03

====

# study_system: Neuraminidase (Influenza A virus, UniProt B4URF0)
pIC50: −log10 of the molar value.
pIC50 of 8 or higher: Satisfied. Under 8: Not satisfied.

// inclusive: pIC50 at least 8? input: CCC(CC)O[C@@H]1C=C(C(=O)O)C[C@H](NCc2ccc(N(C)c3ccccc3)cc2)[C@H]1NC(C)=O Satisfied

// inclusive: pIC50 at least 8? input: CCC(CC)O[C@@H]1C=C(C(=O)O)C[C@H](NCc2ccc(N3CCCCC3)cc2)[C@H]1NC(C)=O Not satisfied

// inclusive: pIC50 at least 8? input: CCC(CC)O[C@@H]1C=C(C(=O)O)C[C@H](NCc2ccc(N(CC)c3ccccc3)cc2)[C@H]1NC(C)=O Not satisfied

// inclusive: pIC50 at least 8? input: CCC(CC)O[C@@H]1C=C(C(=O)O)C[C@H](NCc2ccc(-n3cccc3)cc2)[C@H]1NC(C)=O Not satisfied

// inclusive: pIC50 at least 8? input: CCC(CC)O[C@@H]1C=C(C(=O)O)C[C@H](NCc2ccc(N(CC)CC)cc2)[C@H]1NC(C)=O Satisfied

// inclusive: pIC50 at least 8? input: CCC(CC)O[C@@H]1C=C(C(=O)O)C[C@H](NCc2ccc(-n3cccn3)cc2)[C@H]1NC(C)=O Not satisfied

// inclusive: pIC50 at least 8? input: CCC(CC)O[C@@H]1C=C(C(=O)O)C[C@H](NCc2ccc(N3CCSCC3)cc2)[C@H]1NC(C)=O Not satisfied

// inclusive: pIC50 at least 8? input: CCC(CC)O[C@@H]1C=C(C(=O)O)C[C@H](NCc2ccc(N(C)C)cc2)[C@H]1NC(C)=O Satisfied

// inclusive: pIC50 at least 8? input: CCC(CC)O[C@@H]1C=C(C(=O)O)C[C@H](NCc2ccc(N3CCCC3)cc2)[C@H]1NC(C)=O Satisfied

// inclusive: pIC50 at least 8? input: CCC(CC)O[C@@H]1C=C(C(=O)O)C[C@H](NCc2ccc(Nc3ccccc3)cc2)[C@H]1NC(C)=O Not satisfied

====

# study_system: Neuraminidase (Influenza A virus)
# Design: species or system A/Babol/36/2005(H3N2)
pIC50: −log10 of the molar value.
pIC50 of 7 or higher: label 1. Under 7: label 0.

// inclusive: pIC50 at least 7? input: CCC(CC)O[C@@H]1C=C(C(=O)O)C[C@H](NCc2ccc(-n3cccn3)cc2)[C@H]1NC(C)=O label 0

// inclusive: pIC50 at least 7? input: CCC(CC)O[C@@H]1C=C(C(=O)O)C[C@H](NCc2ccc(N(C)C)cc2)[C@H]1NC(C)=O label 1

// inclusive: pIC50 at least 7? input: CCC(CC)O[C@@H]1C=C(C(=O)O)C[C@H](NCc2ccc(-n3cccc3)cc2)[C@H]1NC(C)=O label 0

// inclusive: pIC50 at least 7? input: CCC(CC)O[C@@H]1C=C(C(=O)O)C[C@H](NCc2ccc(-c3cccs3)cc2)[C@H]1NC(C)=O label 0

// inclusive: pIC50 at least 7? input: CCC(CC)O[C@@H]1C=C(C(=O)O)C[C@H](NCc2ccc(N(CC)c3ccccc3)cc2)[C@H]1NC(C)=O label 0

// inclusive: pIC50 at least 7? input: CCC(CC)O[C@@H]1C=C(C(=O)O)C[C@H](NCc2ccc(N3CCCCC3)cc2)[C@H]1NC(C)=O label 1

====

# study_system: Neuraminidase (Influenza A virus)
# Set-up: species or system Influenza A virus (A/California/04/2009(H1N1))
Could you please report measured pIC50 for the items listed next?
Please express pIC50 as -log10 of the molar concentration.

May I ask what pIC50 has been recorded for CCC(CC)O[C@@H]1C=C(C(=O)O)C[C@H](NCc2ccc(N(C)C)cc2)[C@H]1NC(C)=O ? 8.39

May I ask what pIC50 has been recorded for CCC(CC)O[C@@H]1C=C(C(=O)O)C[C@H](NCc2ccc(-n3cccn3)cc2)[C@H]1NC(C)=O ? 6.53

May I ask what pIC50 has been recorded for CCC(CC)O[C@@H]1C=C(C(=O)O)C[C@H](NCc2ccc(Nc3ccccc3)cc2)[C@H]1NC(C)=O ? 7.18

May I ask what pIC50 has been recorded for CCC(CC)O[C@@H]1C=C(C(=O)O)C[C@H](NCc2ccc(N(CC)CC)cc2)[C@H]1NC(C)=O ? 9.26

May I ask what pIC50 has been recorded for CCC(CC)O[C@@H]1C=C(C(=O)O)C[C@H](NCc2ccc(N3CCCCC3)cc2)[C@H]1NC(C)=O ? 7.73

May I ask what pIC50 has been recorded for CCC(CC)O[C@@H]1C=C(C(=O)O)C[C@H](NCc2ccc(N3CCSCC3)cc2)[C@H]1NC(C)=O ? 7.32

May I ask what pIC50 has been recorded for CCC(CC)O[C@@H]1C=C(C(=O)O)C[C@H](NCc2ccc(N3CCCC3)cc2)[C@H]1NC(C)=O ? 8.64

May I ask what pIC50 has been recorded for CCC(CC)O[C@@H]1C=C(C(=O)O)C[C@H](NCc2ccc(-n3cccc3)cc2)[C@H]1NC(C)=O ? 7.23
